- Tested on: HOP-62
- protocol-summary: NCI tumour cell line growth inhibition, 48 h
Active and inactive are the calls of the source. No stated cut-off is given here; in the data, active = GI50 up to about 1.1 µM and inactive = higher.
Select the correct class. Options are Yes (active), No (inactive) and nothing else.

compound=O=P1(O)c2ccccc2CCc2ccccc21 label_value=No

Query block: Test call for this compound, please: O=C(O)C1C2C=CC(O2)C1C(=O)NCc1cccnc1 (stereo unspecified)
Result block: No

Query block: Short answer needed: outcome of this test for `O=Nn1c2ccccc2c2cc([N+](=O)[O-])ccc21` ?
Result block: No

Query block: Entry `COc1ccc2c(c1)/C(=C\c1c(C)nc3sc(C)cn13)C(=O)N2` : call = ?
Result block: No

Query block: Called result for `CCCCCC(=O)Cc1cc(OC)cc2c1C(=O)Oc1cc(O)c(C(=O)O)c(CC(=O)CCCCC)c1O2`
Result block: No

Query block: I'd appreciate the recorded outcome for `CCOc1ccc(Nc2nc(N)nc(N)c2N=O)cc1` from this test.
Result block: No

Query block: Lab log entry: Cc1ccc(/N=N/c2c(C)c(C#N)c(=S)n(C3OC(CO)C(O)C(O)C3O)c2-c2ccccc2)cc1 (stereo unspecified) — outcome as called in the assay?
Result block: No

Query block: Answer briefly: the call reported for COC(=O)c1ccccc1C1CN=NC12Cc1ccc(C)c(C)c1C2=O (stereo unspecified) in this assay.
Result block: No
